Assayed target: BACE (recombinant human BACE catalytic domain, expressed in CHO cells as BACE-T-IgG, IgG1 removed with thrombin) (human) (UniProt P56817)
Sequence (P56817 43-460 limits assumed, form in doubt): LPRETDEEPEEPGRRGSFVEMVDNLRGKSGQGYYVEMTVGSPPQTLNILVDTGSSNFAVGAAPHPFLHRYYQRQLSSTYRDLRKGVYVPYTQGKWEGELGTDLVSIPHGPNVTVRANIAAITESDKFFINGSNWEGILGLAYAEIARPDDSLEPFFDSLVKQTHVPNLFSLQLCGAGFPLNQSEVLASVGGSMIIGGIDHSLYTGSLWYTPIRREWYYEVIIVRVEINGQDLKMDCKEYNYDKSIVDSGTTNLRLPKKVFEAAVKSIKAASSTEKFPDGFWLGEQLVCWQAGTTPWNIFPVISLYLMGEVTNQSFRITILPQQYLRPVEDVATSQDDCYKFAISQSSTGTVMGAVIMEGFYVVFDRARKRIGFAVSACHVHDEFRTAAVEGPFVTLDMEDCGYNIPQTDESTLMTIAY
Measurement notes: fluorescence anisotropy, BACE titrated into 10 nM Molecule Y1 in the presence of 10 µM OM99-2, fit to 1:1 binding (error 1.5032); this table prints 'Kd' without a unit, nM is taken from the concentration axis and the -OM99-2 table
Where no end group is shown, it is not given here.
Measurement name: Kd (nM)

Binder: YPYFIPL (not fully specified (N-terminus, C-terminus)) [Molecule Y1 (YPYFIPL with C-terminal Alexa488)]
Unit label: nM
Result value: 9.59

Hey, just so you know, these numbers are from patent US20070149763A1.
